# Assay target: human MAO-B (Homo sapiens)
# Sequence (P27338 whole entry): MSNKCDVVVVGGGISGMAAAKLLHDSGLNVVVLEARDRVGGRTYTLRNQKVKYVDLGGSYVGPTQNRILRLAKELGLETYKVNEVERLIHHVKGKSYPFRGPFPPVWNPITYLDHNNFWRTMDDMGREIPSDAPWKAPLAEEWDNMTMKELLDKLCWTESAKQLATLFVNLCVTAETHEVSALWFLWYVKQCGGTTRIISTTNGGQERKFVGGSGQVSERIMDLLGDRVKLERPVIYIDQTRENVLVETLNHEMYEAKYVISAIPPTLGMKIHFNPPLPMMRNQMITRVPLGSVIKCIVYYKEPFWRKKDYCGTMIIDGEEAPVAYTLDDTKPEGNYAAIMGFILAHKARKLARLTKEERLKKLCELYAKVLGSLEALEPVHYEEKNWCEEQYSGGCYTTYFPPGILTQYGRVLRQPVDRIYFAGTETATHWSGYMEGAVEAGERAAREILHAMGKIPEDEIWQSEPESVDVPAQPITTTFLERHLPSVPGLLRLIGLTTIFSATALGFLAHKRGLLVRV
# Experiment: Amplex Red monoamine oxidase assay, MAO-B
# Details: human recombinant MAO-B; read-out: MAO-B IC50 ± SEM
Quantity: IC50 (nM)

Example cases with answers are listed next.
                                   compound                assay_target  assay_result
0  CCCn1c(=O)c2c(nc(NCCc3ccc(O)c(O)c3)n2CCC)n(CCC)c1=O [Compound 12]  human MAO-B (Homo sapiens)           105
1  Cn1c(=O)c2c(nc(NCCc3ccc(O)c(O)c3)n2CCOc2ccccc2)n(C)c1=O [Compound 11l]  human MAO-B (Homo sapiens)          53.5
2  Cn1c(=O)c2c(nc(NCCc3ccc(O)c(O)c3)n2Cc2ccccc2)n(C)c1=O [Compound 11j]  human MAO-B (Homo sapiens)          45.6
3  CCn1c(NCCc2ccc(O)c(O)c2)nc2c1c(=O)n(C)c(=O)n2C [Compound 11b]  human MAO-B (Homo sapiens)          47.9
4  CCCCCn1c(NCCc2ccc(O)c(O)c2)nc2c1c(=O)n(C)c(=O)n2C [Compound 11h]  human MAO-B (Homo sapiens)          58.3

[1] CCC(C)n1c(NCCc2ccc(O)c(O)c2)nc2c1c(=O)n(C)c(=O)n2C (stereo not shown) [Compound 11g]
[2] CCCCn1c(NCCc2ccc(O)c(O)c2)nc2c1c(=O)n(C)c(=O)n2C [Compound 11e]
Prompt: Please let me know which one, 1 or 2 , has a lower measured IC50 value. Give the chosen item's label as your response.
Response: 2

All figures here come from paper PMC10377586.
